Each recorded value in this set is attributed to patent US20090137572A1.

target: GSK3b (Homo sapiens, UniProt P49841); test: Kinase assay (radioactive phosphate incorporation), GSK-3b; type: biochemical; details: read-out: Kinase Inhibition pIC50 GSK-3b (converted)
Sequence (P49841 whole entry, species assumed): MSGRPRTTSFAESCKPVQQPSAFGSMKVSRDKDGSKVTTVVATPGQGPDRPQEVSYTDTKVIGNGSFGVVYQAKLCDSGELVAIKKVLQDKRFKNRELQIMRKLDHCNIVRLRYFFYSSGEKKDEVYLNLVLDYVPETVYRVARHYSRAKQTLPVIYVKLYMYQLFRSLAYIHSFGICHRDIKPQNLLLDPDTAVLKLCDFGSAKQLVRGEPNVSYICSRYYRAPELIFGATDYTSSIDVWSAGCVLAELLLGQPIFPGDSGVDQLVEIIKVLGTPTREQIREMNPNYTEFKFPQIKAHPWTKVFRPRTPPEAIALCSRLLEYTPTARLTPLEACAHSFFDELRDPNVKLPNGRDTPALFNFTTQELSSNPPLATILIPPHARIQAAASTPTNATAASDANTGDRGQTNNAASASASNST

[
  {
    "COMPOUND": "Cc1nc(N)sc1-c1ccnc(Nc2cccc(CNS(=O)(=O)C(F)(F)F)c2)n1 [Compound 12]",
    "ASSAYED_TARGET": "GSK3b (Homo sapiens, UniProt P49841)",
    "IC50 / nM": 2000
  },
  {
    "COMPOUND": "CCNc1nc(C)c(-c2ccnc(Nc3cccc(CNS(=O)(=O)C(F)(F)F)c3)n2)s1 [Compound 10]",
    "ASSAYED_TARGET": "GSK3b (Homo sapiens, UniProt P49841)",
    "IC50 / nM": 6310
  },
  {
    "COMPOUND": "CNc1nc(C)c(-c2ccnc(Nc3ccc(S(=O)(=O)NCCO)cc3)n2)s1 [Compound 67]",
    "ASSAYED_TARGET": "GSK3b (Homo sapiens, UniProt P49841)",
    "IC50 / nM": 1260
  },
  {
    "COMPOUND": "COCCNS(=O)(=O)c1cccc(Nc2nccc(-c3sc(C)nc3C)n2)c1 [Compound 56]",
    "ASSAYED_TARGET": "GSK3b (Homo sapiens, UniProt P49841)",
    "IC50 / nM": 1260
  },
  {
    "COMPOUND": "CCNc1nc(C)c(-c2ccnc(Nc3ccc(S(=O)(=O)NCCO)cc3)n2)s1 [Compound 65]",
    "ASSAYED_TARGET": "GSK3b (Homo sapiens, UniProt P49841)",
    "IC50 / nM": 316
  },
  {
    "COMPOUND": "CCNc1nc(C)c(-c2ccnc(Nc3cccc(S(N)(=O)=O)c3)n2)s1 [Compound 18]",
    "ASSAYED_TARGET": "GSK3b (Homo sapiens, UniProt P49841)",
    "IC50 / nM": 2510
  },
  {
    "COMPOUND": "CNc1nc(C)c(-c2ccnc(Nc3ccc(CNC(C)=O)cc3)n2)s1 [Compound 14]",
    "ASSAYED_TARGET": "GSK3b (Homo sapiens, UniProt P49841)",
    "IC50 / nM": 631
  },
  {
    "COMPOUND": "Cc1nc(C)c(-c2ccnc(Nc3ccc(S(=O)(=O)NCCO)cc3)n2)s1 [Compound 69]",
    "ASSAYED_TARGET": "GSK3b (Homo sapiens, UniProt P49841)",
    "IC50 / nM": 1580
  },
  {
    "COMPOUND": "Cc1nc(C)c(-c2ccnc(Nc3cccc(S(=O)(=O)NCCO)c3)n2)s1 [Compound 78]",
    "ASSAYED_TARGET": "GSK3b (Homo sapiens, UniProt P49841)",
    "IC50 / nM": 1000
  },
  {
    "COMPOUND": "CC(=O)N1CCN(c2cccc(Nc3nccc(-c4sc(C)nc4C)n3)c2)CC1 [Compound 46]",
    "ASSAYED_TARGET": "GSK3b (Homo sapiens, UniProt P49841)",
    "IC50 / nM": 3160
  },
  {
    "COMPOUND": "COCCNc1nc(C)c(-c2ccnc(Nc3cccc(S(N)(=O)=O)c3)n2)s1 [Compound 83]",
    "ASSAYED_TARGET": "GSK3b (Homo sapiens, UniProt P49841)",
    "IC50 / nM": 794
  },
  {
    "COMPOUND": "CCNc1nc(C)c(-c2ccnc(Nc3cccc(S(=O)(=O)NCCO)c3)n2)s1 [Compound 75]",
    "ASSAYED_TARGET": "GSK3b (Homo sapiens, UniProt P49841)",
    "IC50 / nM": 794
  },
  {
    "COMPOUND": "Cc1nc(N)sc1-c1ccnc(Nc2cccc(S(=O)(=O)N3CCOCC3)c2)n1 [Compound 81]",
    "ASSAYED_TARGET": "GSK3b (Homo sapiens, UniProt P49841)",
    "IC50 / nM": 25.1
  },
  {
    "COMPOUND": "Cc1nc(C)c(-c2ccnc(Nc3cccc(N4CCNCC4)c3)n2)s1 [Compound 8]",
    "ASSAYED_TARGET": "GSK3b (Homo sapiens, UniProt P49841)",
    "IC50 / nM": 12600
  },
  {
    "COMPOUND": "CNc1nc(C)c(-c2ccnc(Nc3ccc(S(=O)(=O)NCCOC)cc3)n2)s1 [Compound 40]",
    "ASSAYED_TARGET": "GSK3b (Homo sapiens, UniProt P49841)",
    "IC50 / nM": 501
  },
  {
    "COMPOUND": "Cc1ccc(Nc2nccc(-c3sc(N)nc3C)n2)cc1S(=O)(=O)N1CCOCC1 [Compound 38]",
    "ASSAYED_TARGET": "GSK3b (Homo sapiens, UniProt P49841)",
    "IC50 / nM": 2000
  },
  {
    "COMPOUND": "CCNc1nc(C)c(-c2ccnc(Nc3cccc(S(=O)(=O)NC(C)(C)CO)c3)n2)s1 [Compound 84]",
    "ASSAYED_TARGET": "GSK3b (Homo sapiens, UniProt P49841)",
    "IC50 / nM": 2510
  },
  {
    "COMPOUND": "CCNc1nc(C)c(-c2ccnc(Nc3ccc(S(N)(=O)=O)cc3)n2)s1 [Compound 35]",
    "ASSAYED_TARGET": "GSK3b (Homo sapiens, UniProt P49841)",
    "IC50 / nM": 631
  },
  {
    "COMPOUND": "CC(=O)NCc1ccc(Nc2nccc(-c3sc(N)nc3C)n2)cc1 [Compound 16]",
    "ASSAYED_TARGET": "GSK3b (Homo sapiens, UniProt P49841)",
    "IC50 / nM": 1000
  },
  {
    "COMPOUND": "COCCNS(=O)(=O)c1ccc(Nc2nccc(-c3sc(N)nc3C)n2)cc1 [Compound 41]",
    "ASSAYED_TARGET": "GSK3b (Homo sapiens, UniProt P49841)",
    "IC50 / nM": 794
  },
  {
    "COMPOUND": "Cc1nc(N)sc1-c1ccnc(Nc2cccc(S(=O)(=O)NCCO)c2)n1 [Compound 77]",
    "ASSAYED_TARGET": "GSK3b (Homo sapiens, UniProt P49841)",
    "IC50 / nM": 316
  },
  {
    "COMPOUND": "CCNS(=O)(=O)c1cccc(Nc2nccc(-c3sc(N)nc3C)n2)c1 [Compound 30]",
    "ASSAYED_TARGET": "GSK3b (Homo sapiens, UniProt P49841)",
    "IC50 / nM": 316
  },
  {
    "COMPOUND": "CNS(=O)(=O)c1cccc(Nc2nccc(-c3sc(N)nc3C)n2)c1 [Compound 26]",
    "ASSAYED_TARGET": "GSK3b (Homo sapiens, UniProt P49841)",
    "IC50 / nM": 316
  },
  {
    "COMPOUND": "Cc1nc(C)c(-c2ccnc(Nc3cccc(CNC(=O)c4ccccn4)c3)n2)s1 [Compound 91]",
    "ASSAYED_TARGET": "GSK3b (Homo sapiens, UniProt P49841)",
    "IC50 / nM": 3980
  },
  {
    "COMPOUND": "CNS(=O)(=O)c1cccc(Nc2nccc(-c3sc(C)nc3C)n2)c1 [Compound 33]",
    "ASSAYED_TARGET": "GSK3b (Homo sapiens, UniProt P49841)",
    "IC50 / nM": 200
  },
  {
    "COMPOUND": "CNc1nc(C)c(-c2ccnc(Nc3ccc(S(C)(=O)=O)cc3)n2)s1 [Compound 20]",
    "ASSAYED_TARGET": "GSK3b (Homo sapiens, UniProt P49841)",
    "IC50 / nM": 316
  },
  {
    "COMPOUND": "CNc1nc(C)c(-c2ccnc(Nc3ccc(C)c(Br)c3)n2)s1 [Compound 42]",
    "ASSAYED_TARGET": "GSK3b (Homo sapiens, UniProt P49841)",
    "IC50 / nM": 1000
  },
  {
    "COMPOUND": "CCNc1nc(C)c(-c2ccnc(Nc3ccc(C)c(S(=O)(=O)N4CCOCC4)c3)n2)s1 [Compound 36]",
    "ASSAYED_TARGET": "GSK3b (Homo sapiens, UniProt P49841)",
    "IC50 / nM": 3980
  },
  {
    "COMPOUND": "COCCNS(=O)(=O)c1cccc(Nc2nccc(-c3sc(N)nc3C)n2)c1 [Compound 55]",
    "ASSAYED_TARGET": "GSK3b (Homo sapiens, UniProt P49841)",
    "IC50 / nM": 501
  },
  {
    "COMPOUND": "CCNc1nc(C)c(-c2ccnc(Nc3ccc(S(=O)(=O)NCCOC)cc3)n2)s1 [Compound 39]",
    "ASSAYED_TARGET": "GSK3b (Homo sapiens, UniProt P49841)",
    "IC50 / nM": 5010
  },
  {
    "COMPOUND": "CC(=O)NCc1ccc(Nc2nccc(-c3sc(C)nc3C)n2)cc1 [Compound 15]",
    "ASSAYED_TARGET": "GSK3b (Homo sapiens, UniProt P49841)",
    "IC50 / nM": 1000
  },
  {
    "COMPOUND": "CNc1nc(C)c(-c2ccnc(Nc3cccc(S(=O)(=O)NCCOC)c3)n2)s1 [Compound 54]",
    "ASSAYED_TARGET": "GSK3b (Homo sapiens, UniProt P49841)",
    "IC50 / nM": 631
  },
  {
    "COMPOUND": "CCNc1nc(C)c(-c2ccnc(Nc3cccc(S(=O)(=O)NC(C)C)c3)n2)s1 [Compound 70]",
    "ASSAYED_TARGET": "GSK3b (Homo sapiens, UniProt P49841)",
    "IC50 / nM": 5010
  },
  {
    "COMPOUND": "CNc1nc(C)c(-c2ccnc(Nc3cc(OC)c(OC)c(OC)c3)n2)s1 [Compound 23]",
    "ASSAYED_TARGET": "GSK3b (Homo sapiens, UniProt P49841)",
    "IC50 / nM": 794
  },
  {
    "COMPOUND": "CNc1nc(C)c(-c2ccnc(Nc3cccc(S(=O)(=O)NC(C)=O)c3)n2)s1 [Compound 63]",
    "ASSAYED_TARGET": "GSK3b (Homo sapiens, UniProt P49841)",
    "IC50 / nM": 1580
  }
]
